src = patent US4929618A

# Tested on: histamine-induced death
# measurement_protocol: Protective effect on histamine-induced death
# Assay type: in vivo, guinea pig (Hartley-strain male)
# test_settings: Cavia porcellus; oral 1 mg/kg, 2 h before 1.25 mg/kg i.v. histamine hydrochloride; guinea pig; read-out: Percent inhibition of histamine-induced death at a dose of 1 mg/kg, P.D. (%)
Here, each record is paired with measured responders at 1 mg/kg data.
endpoint: responders at 1 mg/kg (%)

c1ccc(C(c2ccccc2)N2CCN(CCCSc3nc4ccccc4s3)CC2)cc1; 80
COc1ccc(CCN2CCC(Nc3nc4ccccc4n3Cc3ccc(F)cc3)CC2)cc1 [Astemizole, reference compound]; 100
O=C(O)CCCN1CCC(OC(c2ccc(Cl)cc2)c2ccccn2)CC1 (stereo not shown); 100
O=c1[nH]c2ccccc2n1CCCN1CCN(C(c2ccccc2)c2ccccc2)CC1 [Oxatomide, reference compound]; 100
CC(C)(C)c1ccc(C(O)CCCN2CCC(C(O)(c3ccccc3)c3ccccc3)CC2)cc1 (stereo not shown) [Terfenadine, reference compound]; 50
O=C(CCCN1CCC(OC(c2ccc(Cl)cc2)c2ccccn2)CC1)c1ccccc1 (stereo not shown); 100
Clc1ccc(C(OC2CCN(CCSc3nc4ccccc4s3)CC2)c2ccccn2)cc1 (stereo not shown); 60
c1ccc2c(c1)Sc1ccccc1N2CC1CN2CCC1CC2 (stereo not shown) [Meqiutazine, reference compound]; 80
Clc1ccc(C(OC2CCN(CCCSc3nc4ccccc4s3)CC2)c2ccccn2)cc1 (stereo not shown); 80
Clc1ccc(C(OC2CCN(CCNc3nc4ccccc4s3)CC2)c2ccccn2)cc1 (stereo not shown); 100
CCOC(=O)CCCN1CCC(OC(c2ccc(Cl)cc2)c2ccccn2)CC1 (stereo not shown); 100
CCOC(=O)CCCN1CCC(OC(c2ccccc2)c2ccccc2)CC1.O=C(O)/C=C/C(=O)O; 80
NC(=O)CCCN1CCC(OC(c2ccc(Cl)cc2)c2ccccn2)CC1.O=C(O)/C=C\C(=O)O (stereo not shown) [Compound M, maleate]; 100
CCOc1ccc2nc(SCCCN3CCC(OC(c4ccc(Cl)cc4)c4ccccn4)CC3)sc2c1.O=C(O)/C=C/C(=O)O (stereo not shown) [Compound G, fumarate]; 100
Clc1ccc(C(OC2CCN(CCCSc3nc4ccccc4o3)CC2)c2ccccn2)cc1 (stereo not shown); 100
CN1CCCC(n2nc(Cc3ccc(Cl)cc3)c3ccccc3c2=O)CC1 (stereo not shown) [Azelastine hydrochloric acid, reference compound]; 100
